# System: NK-92 (IL-2 2.5 ng/mL);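 note: normalised to DMSO-only wells as negative and benzethonium chloride as positive control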
# Protocol details: percent inhibition of viability; higher = more inhibition
# Setup conditions: 72 h; 100 nM
Property name: percent inhibition of viability (%)
Write it as a number; the unit % goes unstated.

{"columns": ["Molecule", "percent inhibition of viability (%)"],
 "data": [
  ["Cc1sc2c(c1C)C(c1ccc(Cl)cc1)=N[C@@H](CC(=O)Nc1ccc(O)cc1)c1nnc(C)n1-2 [OTX015] (max concentration tested 10000 nM)", -32.9]
]}

QUERY: Given CNC(=O)c1cccc2cc(Oc3ccnc4cc(OCC5(N)CC5)c(OC)cc34)ccc12 [Lucitanib] (max concentration tested 10000 nM) , report its percent inhibition of viability on NK-92 (IL-2 2.5 ng/mL).
RESULT: 3.06

QUERY: Output reported percent inhibition of viability of the molecule CS(=O)(=O)CCNCc1ccc(-c2ccc3ncnc(Nc4ccc(OCc5cccc(F)c5)c(Cl)c4)c3c2)o1 [Lapatinib] (max concentration tested 1000 nM) on NK-92 (IL-2 2.5 ng/mL).
RESULT: 30.6
